As an illustration, consider measured Ki for compounds on UniProt P21918.
Sequence (P21918 whole entry): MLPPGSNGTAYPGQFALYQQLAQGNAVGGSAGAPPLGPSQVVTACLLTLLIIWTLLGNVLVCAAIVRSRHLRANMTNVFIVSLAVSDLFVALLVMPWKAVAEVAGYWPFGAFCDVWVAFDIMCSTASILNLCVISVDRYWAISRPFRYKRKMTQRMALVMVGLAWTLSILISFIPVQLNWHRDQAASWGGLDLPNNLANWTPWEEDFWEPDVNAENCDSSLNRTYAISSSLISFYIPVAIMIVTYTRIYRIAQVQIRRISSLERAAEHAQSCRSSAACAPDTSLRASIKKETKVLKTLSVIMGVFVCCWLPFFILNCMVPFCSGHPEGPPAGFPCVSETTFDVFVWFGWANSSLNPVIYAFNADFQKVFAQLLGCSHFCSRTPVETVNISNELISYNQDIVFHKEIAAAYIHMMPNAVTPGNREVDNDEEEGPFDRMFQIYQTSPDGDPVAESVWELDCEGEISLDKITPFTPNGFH

[
  {
    "compound": "C=CCN1CCc2c(cc(O)c(O)c2Cl)C(c2cccc(C)c2)C1 (stereo not given)",
    "Ki (nM)": 9.94
  },
  {
    "compound": "Cc1ccc(C2CN(C)CCc3c2cc(O)c(O)c3Br)cc1 (stereo not given)",
    "Ki (nM)": 4.36
  },
  {
    "compound": "Cc1ccc(C2CN(C)CCc3c2cc(O)c(O)c3Cl)cc1 (stereo not given)",
    "Ki (nM)": 3.96
  },
  {
    "compound": "Cc1ccccc1C1CN(C)CCc2c1cc(O)c(O)c2Br (stereo not given)",
    "Ki (nM)": 3.42
  },
  {
    "compound": "Cc1cccc(C2CNCCc3c2cc(O)c(O)c3Cl)c1 (stereo not given)",
    "Ki (nM)": 0.88
  }
]

Data origin: BindingDB's records for doi:10.1016/s0014-2999(03)02008-9
